Recorded DSF max dTma by entry
target: SARS-CoV-2 NSP3 Mac1 (Severe acute respiratory syndrome coronavirus 2, UniProt P0DTD1); assay type: binding; set-up: contains a conserved macrodomain enzyme (Mac1); settings: maximal thermal upshift vs DMSO control
Numbers only; they are read as °C.

[ask] Find the recorded DSF max dTma belonging to O=c1[nH]ccn2c(CSc3nc4ccccc4s3)nnc12 and report it.
[reply] 0.67

[ask] Note, next up: Clc1cc2c(N3CCCC(c4nnc[nH]4)C3)ncnc2[nH]1 (stereo not drawn)
[reply] 0.86

[ask] Note, next up: CC1CCc2n[nH]cc2C1C(=O)N(C)OCc1ccccc1 (stereo not drawn)
[reply] 0.54

[ask] Note, next up: O=C(Nc1cccnc1)Nc1nc2ccccc2c(=O)[nH]1
[reply] 0

[ask] Note, next up: O=c1[nH]nc(C2CCCN(c3ncnc4[nH]c(Cl)cc34)C2)o1 (stereo not drawn)
[reply] 1.01

[ask] Note, next up: O=C(NCc1nc2ccccc2c(=O)[nH]1)Nc1cccnc1
[reply] 0.22

* * *

target: SARS-CoV-2 NSP3 Mac1 (Severe acute respiratory syndrome coronavirus 2, UniProt P0DTD1); test: biochemical; type: binding; conditions: HTRF; read-out: IC50
Recorded log10(IC50) by entry
For clarity, the numbers are log10 values of IC50 expressed in µM.

Example compounds with recorded log10(IC50):
- Compound: "O=C(O)CC1CN(c2ncnc3[nH]c4cc(Br)ccc4c23)CCO1 (stereo not drawn)"
  System Tested: "SARS-CoV-2 NSP3 Mac1 (Severe acute respiratory syndrome coronavirus 2, UniProt P0DTD1)"
  log10(IC50): 1.41
- Compound: "Cc1c[nH]c2ncc(C(=O)N(C)c3nnn[nH]3)cc12"
  System Tested: "SARS-CoV-2 NSP3 Mac1 (Severe acute respiratory syndrome coronavirus 2, UniProt P0DTD1)"
  log10(IC50): 1.63
- Compound: "NC(=O)Nc1ccc(C(=O)NC2c3cccc(O)c3CC2C(=O)O)cc1 (stereo not drawn)"
  System Tested: "SARS-CoV-2 NSP3 Mac1 (Severe acute respiratory syndrome coronavirus 2, UniProt P0DTD1)"
  log10(IC50): 0.11

[ask] Find the recorded log10(IC50) belonging to O=C(O)C[C@@H]1CN(c2ncnc3[nH]c4cc(F)ccc4c23)C[C@H](CO)O1 and report it.
[reply] 0.91

[ask] Note, next up: O=C(O)C1CN(c2ncnc3[nH]c4cc(F)ccc4c23)CCC12CCC2 (stereo not drawn)
[reply] 1.20

[ask] Note, next up: CNC(=O)Nc1ccc(C(=O)NC2c3cccc(O)c3CC2C(=O)O)cc1 (stereo not drawn)
[reply] 0.00

* * *

Recorded 1-BDC by entry
target: UniProt P0DTD1; assay type: binding; settings: PanDDA 1-BDC of the event; compound stock 100 mM, Echo dispense volume 80 nl
Answer as a number with no unit attached.

Example compounds with recorded 1-BDC:
- Compound: "O=C(O)[C@@H]1CCC[C@H](Nc2ncnc3[nH]c4cc(F)ccc4c23)C1"
  Numeric Result: 0.32
- Compound: "O=S1(=O)CC(CNc2ncnc3[nH]c4cc(F)ccc4c23)C1"
  Numeric Result: 0.1
- Compound: "O=C(O)C1(F)CN(c2ncnc3[nH]c4cc(F)ccc4c23)CC1C1CC1 (stereo not drawn)"
  Numeric Result: 0.14
- Compound: "OCC1CN(c2ncnc3[nH]c4cc(F)ccc4c23)CC2(CCC2)O1 (stereo not drawn)"
  Numeric Result: 0.1
- Compound: "O=C(O)C1(F)CN(c2ncnc3[nH]c4cc(Br)ccc4c23)CC12CCC2 (stereo not drawn)"
  Numeric Result: 0.15

[ask] Find the recorded 1-BDC belonging to O=C(O)C(O)C1CCCN(c2ncnc3[nH]c4cc(F)ccc4c23)C1 (stereo not drawn) and report it.
[reply] 0.24

[ask] Note, next up: O=C(O)C1(F)CN(c2ncnc3[nH]c4cc(F)ccc4c23)CC12COC2 (stereo not drawn)
[reply] 0.08

[ask] Note, next up: COC(=O)C1(CO)CCN(c2ncnc3[nH]c4cc(F)ccc4c23)C1 (stereo not drawn)
[reply] 0.1

[ask] Note, next up: O=C(O)C1CN(c2ncnc3[nH]c4cc(F)ccc4c23)CCC12CCC2 (stereo not drawn)
[reply] 0.11

[ask] Note, next up: O=S1(=O)CCC1CNc1ncnc2[nH]c3cc(F)ccc3c12 (stereo not drawn)
[reply] 0.06

[ask] Note, next up: O=C1OCCN1C1CCN(c2ncnc3[nH]c4cc(F)ccc4c23)C1 (stereo not drawn)
[reply] 0.09
